assay: Half life in CD-1 mouse plasma at 20 mg/kg, po; format: ADME, organism-based
RECORDED_ENDPOINT: half-life

1. CCN(CC)CCCC(C)Nc1cnc(C(=O)Nc2ccc(Cl)c3cccnc23)cn1 (stereo unspecified)	6.1 h

---

assay: Cmax in CD-1 mouse plasma at 20 mg/kg, po; assay type: ADME, organism-based; design: dose 20 mg/kg, route po
RECORDED_ENDPOINT: Cmax (ng/mL)

1. CCN(CC)CCCC(C)Nc1cnc(C(=O)Nc2ccc(Cl)c3cccnc23)cn1 (stereo unspecified)	254

---

Reported values of pKi for individual entries
target: Sigma intracellular receptor 2 (Homo sapiens, UniProt Q5BJF2); experiment: Displacement of [3H][…]ditolylguanidine from human sigma 2 receptor transfected in human HEK293T cells assessed as inhibition constant by radioligand competition binding assay
Sequence (Q5BJF2 whole entry): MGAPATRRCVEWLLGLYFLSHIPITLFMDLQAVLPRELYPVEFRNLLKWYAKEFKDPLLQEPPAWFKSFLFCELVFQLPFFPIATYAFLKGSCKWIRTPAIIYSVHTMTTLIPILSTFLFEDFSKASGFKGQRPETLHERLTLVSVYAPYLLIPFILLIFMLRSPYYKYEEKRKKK
pKi: −log10 of the molar value.
RECORDED_ENDPOINT: pKi

1) CCN(CC)CCCC(C)Nc1cnc(C(=O)Nc2cc(C#N)cc3cccnc23)cn1 (centres undefined)	6.97
2) CN(C)CCCNc1cnc(C(=O)Nc2cc(F)cc3cccnc23)cn1	6.98
3) CCN(CC)CCCC(C)Nc1cnc(C(=O)Nc2c(OC)ccc3cccnc23)cn1 (centres undefined)	5.79
4) CCN(CC)CCCC(C)Nc1cnc(C(=O)Nc2cc(C)c(Cl)c3cccnc23)cn1 (centres undefined)	7.44

---

target: Muscarinic acetylcholine receptor M5 (Homo sapiens, UniProt P08912)
Sequence (P08912 whole entry): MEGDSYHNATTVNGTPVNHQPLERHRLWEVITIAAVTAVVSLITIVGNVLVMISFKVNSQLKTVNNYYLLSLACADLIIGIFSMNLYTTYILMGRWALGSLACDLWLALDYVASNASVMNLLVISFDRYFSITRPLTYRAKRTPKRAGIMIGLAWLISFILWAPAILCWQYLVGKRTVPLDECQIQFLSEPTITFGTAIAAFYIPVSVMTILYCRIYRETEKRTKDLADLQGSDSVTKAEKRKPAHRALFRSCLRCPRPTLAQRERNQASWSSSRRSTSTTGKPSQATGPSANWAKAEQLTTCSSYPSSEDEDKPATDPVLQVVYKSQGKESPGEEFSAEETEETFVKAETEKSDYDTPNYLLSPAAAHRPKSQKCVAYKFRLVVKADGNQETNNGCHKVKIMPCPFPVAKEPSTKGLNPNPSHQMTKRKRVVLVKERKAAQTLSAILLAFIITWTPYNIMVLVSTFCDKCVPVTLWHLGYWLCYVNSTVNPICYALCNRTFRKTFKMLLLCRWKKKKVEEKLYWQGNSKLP
RECORDED_ENDPOINT: Ki

1. CCN(CC)CCCC(C)Nc1cnc(C(=O)Nc2cc(F)cc3cccnc23)cn1 (stereo unspecified)	373 nM

---

experiment: AUC (0 to infinity) in CD-1 mouse plasma at 10 mg/kg, iv; type: ADME, organism-based; design: dose 10 mg/kg, route iv
RECORDED_ENDPOINT: AUC(0-inf) (ng·h/mL)

1. CCN(CC)CCCC(C)Nc1cnc(C(=O)Nc2ccc(Cl)c3cccnc23)cn1 (stereo unspecified)	2680

---

test: Apparent oral clearance in CD-1 mouse plasma at 20 mg/kg, po; format: ADME, organism-based
RECORDED_ENDPOINT: CL/F (mL/min/kg)

1) CCN(CC)CCCC(C)Nc1cnc(C(=O)Nc2ccc(Cl)c3cccnc23)cn1 (stereo unspecified)	98.3

---

target: Sigma non-opioid intracellular receptor 1 (Homo sapiens, UniProt Q99720); assay: Displacement of [3H](+)-pentazocine from human sigma 1 receptor transfected in human HEK293T cells assessed as inhibition constant by radioligand competition binding assay; assay type: cell-based
Sequence (Q99720 whole entry): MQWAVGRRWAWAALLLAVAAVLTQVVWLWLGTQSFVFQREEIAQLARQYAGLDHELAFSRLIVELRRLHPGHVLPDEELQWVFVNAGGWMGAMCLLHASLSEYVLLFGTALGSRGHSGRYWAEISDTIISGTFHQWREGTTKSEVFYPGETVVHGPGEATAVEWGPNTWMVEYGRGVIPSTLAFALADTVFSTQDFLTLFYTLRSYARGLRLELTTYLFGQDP
Mark TRUE for Ki under 600 nM, FALSE if at or over.

1) Cc1cc(NC(=O)c2cnc(NCCN3CCNCC3)cn2)c2ncccc2c1	FALSE
2) CCN(CC)CCCC(C)Nc1cnc(C(=O)Nc2cccc3cc(Cl)cnc23)cn1 (configuration not stated)	TRUE
3) CCN(CC)CCCC(C)Nc1cnc(C(=O)Nc2ccc(F)c3cccnc23)cn1 (configuration not stated)	TRUE
4) O=C(Nc1cc(F)cc2cccnc12)c1cnc(NCCN2CCS(=O)(=O)CC2)cn1	FALSE
5) CCN(CC)CCCC(C)Nc1cnc(C(=O)Nc2ccc(Cl)c3cccnc23)cn1 (configuration not stated)	TRUE
6) CN(C)CCNc1cnc(C(=O)Nc2cc(F)cc3cccnc23)cn1	FALSE
7) CCN(CC)CCCC(C)Nc1cnc(C(=O)Nc2ccc(OC)c3cccnc23)cn1 (configuration not stated)	TRUE

---

Reported Ki values follow for various compounds
biological target: UniProt P21918
Sequence (P21918 whole entry): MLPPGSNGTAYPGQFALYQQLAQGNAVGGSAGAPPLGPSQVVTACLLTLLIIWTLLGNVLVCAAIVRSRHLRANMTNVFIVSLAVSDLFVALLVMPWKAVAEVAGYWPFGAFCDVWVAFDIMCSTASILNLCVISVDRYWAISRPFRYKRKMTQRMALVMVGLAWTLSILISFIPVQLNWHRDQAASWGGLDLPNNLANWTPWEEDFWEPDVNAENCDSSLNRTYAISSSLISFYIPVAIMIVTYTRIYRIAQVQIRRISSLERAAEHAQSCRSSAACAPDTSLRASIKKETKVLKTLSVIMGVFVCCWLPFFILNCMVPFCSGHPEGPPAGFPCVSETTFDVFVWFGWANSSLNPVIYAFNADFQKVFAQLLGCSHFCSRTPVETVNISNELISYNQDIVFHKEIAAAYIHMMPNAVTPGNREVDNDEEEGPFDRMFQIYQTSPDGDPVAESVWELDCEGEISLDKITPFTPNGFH
RECORDED_ENDPOINT: Ki (µM)

1) CCN(CC)CCCC(C)Nc1cnc(C(=O)Nc2ccc(Cl)c3cccnc23)cn1 (configuration not stated)	1.55
2) CCN(CC)CCCC(C)Nc1cnc(C(=O)Nc2cc(F)cc3cccnc23)cn1 (configuration not stated)	2.83

---

pKi values by entry
biological target: D(1A) dopamine receptor (Homo sapiens, UniProt P21728); assay: Binding affinity to dopamine D1 receptor (unknown origin) assessed as inhibition constant
Sequence (P21728 whole entry): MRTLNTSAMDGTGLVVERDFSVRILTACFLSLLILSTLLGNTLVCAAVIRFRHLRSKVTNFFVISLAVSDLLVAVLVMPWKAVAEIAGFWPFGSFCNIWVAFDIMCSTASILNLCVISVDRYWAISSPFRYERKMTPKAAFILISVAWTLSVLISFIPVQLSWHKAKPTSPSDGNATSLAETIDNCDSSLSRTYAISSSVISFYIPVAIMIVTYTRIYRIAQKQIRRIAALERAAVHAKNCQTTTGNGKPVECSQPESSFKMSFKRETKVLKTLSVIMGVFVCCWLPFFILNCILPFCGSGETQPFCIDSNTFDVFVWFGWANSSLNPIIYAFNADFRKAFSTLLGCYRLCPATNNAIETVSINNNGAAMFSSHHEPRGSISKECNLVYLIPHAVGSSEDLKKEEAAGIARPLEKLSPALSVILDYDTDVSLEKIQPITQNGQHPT
pKi: −log10 of the molar value.
RECORDED_ENDPOINT: pKi

1) CCN(CC)CCCC(C)Nc1cnc(C(=O)Nc2cc(F)cc3cccnc23)cn1 (configuration not stated)	5.26
2) CCN(CC)CCCC(C)Nc1cnc(C(=O)Nc2ccc(Cl)c3cccnc23)cn1 (configuration not stated)	5.84

---

biological target: Sigma intracellular receptor 2 (Homo sapiens, UniProt Q5BJF2); experiment: Displacement of [3H][…]ditolylguanidine from human sigma 2 receptor transfected in human HEK293T cells assessed as inhibition constant by radioligand competition binding assay
Known Ki of a selection of compounds
RECORDED_ENDPOINT: Ki (nM)

1) CCN(CC)CCCC(C)NCC(=O)Nc1cc(C)cc2cccnc12 (stereo unspecified)	52
2) CCN(CC)CCCC(C)Nc1cnc(C(=O)Nc2ccc(OC)c3ccc(OC)nc23)cn1 (stereo unspecified)	70
3) CCN(CC)CCCC(C)Nc1nc(C(=O)Nc2cc(F)cc3cccnc23)cs1 (stereo unspecified)	32
4) CCN(CCO)CCCC(C)Nc1cnc(C(=O)Nc2cc(C)cc3cccnc23)cn1 (stereo unspecified)	71
5) CCN(CC)CCCC(C)Nc1cnc(C(=O)Nc2cccc3cc(Cl)cnc23)cn1 (stereo unspecified)	51
6) CCN(CC)CCCC(C)Nc1cnc(C(=O)Nc2cc(Cl)cc3cccnc23)cn1 (stereo unspecified)	14
7) CCN(CC)CCCC(C)Nc1cnc(C(=O)Nc2cc(F)cc3cccnc23)cn1 (stereo unspecified)	10
8) CCN(CC)CCCC(C)Nc1cnc(C(=O)Nc2ccc(OC)c3cccnc23)cn1 (stereo unspecified)	40
9) Cc1cc(NC(=O)c2cnc(S(=O)(=O)NCCN(C)C)cn2)c2ncccc2c1	2150
10) CCN(CC)CCCC(C)Nc1cnc(C(=O)Nc2ccc(C)c3cccnc23)cn1 (stereo unspecified)	42
11) CCN(CC)CCCC(C)Nc1cnc(C(=O)Nc2c(C)ccc3cccnc23)cn1 (stereo unspecified)	2660
12) CCN(CC)CCCC(C)Nc1cnc(C(=O)Nc2cccc3c(Cl)ccnc23)cn1 (stereo unspecified)	20
13) CCN(CC)CCCC(C)Nc1cnc(C(=O)Nc2cccc3cccnc23)cn1 (stereo unspecified)	22
14) CCN(CC)CCCC(C)Nc1cnc(C(=O)Nc2ccc(Cl)c3ccc(OC)nc23)cn1 (stereo unspecified)	79
15) Cc1cc(NC(=O)c2cnc(OC3CCNCC3)cn2)c2ncccc2c1	134
16) CCN(CC)CCCC(C)Nc1cnc(C(=O)Nc2cccc3ccc(Cl)nc23)cn1 (stereo unspecified)	12
17) CCN(CC)CCCC(C)Nc1cnc(C(=O)Nc2cc(Br)cc3cccnc23)cn1 (stereo unspecified)	27
18) CCN(CC)CCCC(C)Nc1cnc(C(=O)Nc2cc(OC)cc3cccnc23)cn1 (stereo unspecified)	13
19) CCN(CC)CCCC(C)Nc1cnc(C(=O)Nc2cc(C)cc3cccnc23)cn1 (stereo unspecified)	85
20) CCN(CC)CCCC(C)Nc1cnc(C(=O)Nc2cc(C3CC3)cc3cccnc23)cn1 (stereo unspecified)	27
21) CCN(CC)CCCC(C)Nc1ccc(S(=O)(=O)Nc2cc(F)cc3cccnc23)nc1 (stereo unspecified)	38

---

assay: Solubility of the compound; format: physicochemical
RECORDED_ENDPOINT: solubility

1) CCN(CC)CCCC(C)Nc1cnc(C(=O)Nc2ccc(Cl)c3cccnc23)cn1 (stereo unspecified)	> 5000 µg/mL

---

target: Muscarinic acetylcholine receptor M1 (Homo sapiens, UniProt P11229)
Sequence (P11229 whole entry): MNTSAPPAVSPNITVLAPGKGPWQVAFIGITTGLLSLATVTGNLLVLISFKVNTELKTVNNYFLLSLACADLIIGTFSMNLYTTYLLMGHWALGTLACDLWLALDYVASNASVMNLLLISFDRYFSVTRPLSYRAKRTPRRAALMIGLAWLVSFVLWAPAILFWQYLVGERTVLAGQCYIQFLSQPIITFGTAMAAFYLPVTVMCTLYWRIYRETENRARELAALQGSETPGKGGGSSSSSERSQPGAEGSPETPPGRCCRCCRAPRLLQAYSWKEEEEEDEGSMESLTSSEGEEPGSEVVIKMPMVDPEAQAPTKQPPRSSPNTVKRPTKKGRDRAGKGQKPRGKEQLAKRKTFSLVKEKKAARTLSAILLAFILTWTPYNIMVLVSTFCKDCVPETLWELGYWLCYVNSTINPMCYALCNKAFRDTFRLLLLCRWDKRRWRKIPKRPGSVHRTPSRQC
RECORDED_ENDPOINT: Ki (µM)

1) CCN(CC)CCCC(C)Nc1cnc(C(=O)Nc2ccc(Cl)c3cccnc23)cn1 (stereo unspecified)	4.2

---

test: AUC (0 to time of last detectable concentration) in CD-1 mouse plasma at 10 mg/kg, iv; format: ADME, organism-based; parameters: dose 10 mg/kg, route iv
RECORDED_ENDPOINT: AUC

1. CCN(CC)CCCC(C)Nc1cnc(C(=O)Nc2ccc(Cl)c3cccnc23)cn1 (stereo unspecified)	2600 ng·h/mL

---

experiment: Half life in CD-1 mouse plasma at 10 mg/kg, iv; format: ADME, organism-based
RECORDED_ENDPOINT: half-life

1) CCN(CC)CCCC(C)Nc1cnc(C(=O)Nc2ccc(Cl)c3cccnc23)cn1 (stereo unspecified)	4.7 h

---

target: Sigma non-opioid intracellular receptor 1 (Homo sapiens); experiment: Displacement of [3H](+)-pentazocine from human sigma 1 receptor transfected in human HEK293T cells assessed as inhibition constant by radioligand competition binding assay
pKi: −log10 of the molar value.
# pKi annotations
RECORDED_ENDPOINT: pKi

1) CCN(CC)CCCC(C)Nc1cnc(C(=O)Nc2cccc3c(Cl)ccnc23)cn1 (stereo not given)	7.23
2) CCN(CC)CCCC(C)Nc1nc(C(=O)Nc2cc(F)cc3cccnc23)cs1 (stereo not given)	6.80
3) CCN(CC)CCCC(C)Nc1cnc(C(=O)Nc2cccc3ccc(C)nc23)cn1 (stereo not given)	6.63
4) CCN(CC)CCCC(C)Nc1cnc(C(=O)Nc2cc(C3CC3)cc3cccnc23)cn1 (stereo not given)	7.15
5) Cc1cc(NC(=O)c2cnc(N3CCN(CCN)CC3)cn2)c2ncccc2c1	6.78
6) Cc1cc(NC(=O)c2cnc(S(=O)(=O)NCCN(C)C)cn2)c2ncccc2c1	6.29
7) CN(C)CCOc1cnc(C(=O)Nc2cc(F)cc3cccnc23)cn1	6.95
8) CCN(CC)CCCC(C)Nc1cnc(C(=O)Nc2cccc3cccnc23)cn1 (stereo not given)	6.71
9) CN(C)CCCNc1cnc(C(=O)Nc2cc(F)cc3cccnc23)cn1	6.96
10) CCN(CC)CCCC(C)Nc1cnc(C(=O)Nc2cc(C(F)(F)F)cc3cccnc23)cn1 (stereo not given)	6.41
